Cited source: the supplement of paper PMC8728848

- target.of.assay: Neu5Ac(a2-3)Gal(b1-3)[GlcNAc(b1-6)]GalNAc
- test.summary: glycan array binding signal (z-score within array); higher = stronger binding
- run.conditions: glycan notation: IUPAC condensed, linker removed
Only a selection was taken, and the strongest signals are over-represented in it overall.
measurement.label: glycan array binding signal (z-score)
Lab note: record the figure alone, no unit after it.

Ask | # lookup: glycan array binding signal (z-score) of Mincle (Bos taurus) (protein) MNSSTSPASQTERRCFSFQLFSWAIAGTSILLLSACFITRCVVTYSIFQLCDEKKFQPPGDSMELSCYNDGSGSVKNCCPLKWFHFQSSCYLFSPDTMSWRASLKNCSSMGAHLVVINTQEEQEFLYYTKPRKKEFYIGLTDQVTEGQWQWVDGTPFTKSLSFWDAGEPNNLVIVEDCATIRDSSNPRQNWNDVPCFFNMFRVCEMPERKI
Reply | -0.595
